targetDesc: Sodium-dependent noradrenaline transporter (Homo sapiens)
Sequence (P23975 whole entry): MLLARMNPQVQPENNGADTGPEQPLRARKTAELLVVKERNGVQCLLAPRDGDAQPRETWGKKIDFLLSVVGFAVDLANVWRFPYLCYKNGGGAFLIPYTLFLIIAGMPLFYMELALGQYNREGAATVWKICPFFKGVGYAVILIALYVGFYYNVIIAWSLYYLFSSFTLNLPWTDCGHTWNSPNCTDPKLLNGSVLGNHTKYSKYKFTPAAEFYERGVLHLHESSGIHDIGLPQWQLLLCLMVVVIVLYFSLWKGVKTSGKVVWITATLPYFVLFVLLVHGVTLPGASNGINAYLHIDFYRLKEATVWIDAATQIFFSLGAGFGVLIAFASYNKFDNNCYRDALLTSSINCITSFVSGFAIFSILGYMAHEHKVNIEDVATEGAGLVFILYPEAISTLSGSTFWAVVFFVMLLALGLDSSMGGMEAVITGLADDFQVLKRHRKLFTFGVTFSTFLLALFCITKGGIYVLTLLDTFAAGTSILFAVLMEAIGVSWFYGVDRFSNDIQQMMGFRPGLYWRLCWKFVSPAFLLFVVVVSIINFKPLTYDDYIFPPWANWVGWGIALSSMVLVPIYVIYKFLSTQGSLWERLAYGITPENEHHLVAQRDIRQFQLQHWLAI
pIC50: −log10 of the molar value.
reportedEndpoint: pIC50

Recorded pIC50 for CC(C)C[C@@H](N)C(=O)Nc1ccc(-c2cnco2)c(OC(F)F)c1 , please?
< 4.52

----------
targetDesc: AP2-associated protein kinase 1 (Mus musculus, UniProt Q3UHJ0)
Sequence (Q3UHJ0 whole entry): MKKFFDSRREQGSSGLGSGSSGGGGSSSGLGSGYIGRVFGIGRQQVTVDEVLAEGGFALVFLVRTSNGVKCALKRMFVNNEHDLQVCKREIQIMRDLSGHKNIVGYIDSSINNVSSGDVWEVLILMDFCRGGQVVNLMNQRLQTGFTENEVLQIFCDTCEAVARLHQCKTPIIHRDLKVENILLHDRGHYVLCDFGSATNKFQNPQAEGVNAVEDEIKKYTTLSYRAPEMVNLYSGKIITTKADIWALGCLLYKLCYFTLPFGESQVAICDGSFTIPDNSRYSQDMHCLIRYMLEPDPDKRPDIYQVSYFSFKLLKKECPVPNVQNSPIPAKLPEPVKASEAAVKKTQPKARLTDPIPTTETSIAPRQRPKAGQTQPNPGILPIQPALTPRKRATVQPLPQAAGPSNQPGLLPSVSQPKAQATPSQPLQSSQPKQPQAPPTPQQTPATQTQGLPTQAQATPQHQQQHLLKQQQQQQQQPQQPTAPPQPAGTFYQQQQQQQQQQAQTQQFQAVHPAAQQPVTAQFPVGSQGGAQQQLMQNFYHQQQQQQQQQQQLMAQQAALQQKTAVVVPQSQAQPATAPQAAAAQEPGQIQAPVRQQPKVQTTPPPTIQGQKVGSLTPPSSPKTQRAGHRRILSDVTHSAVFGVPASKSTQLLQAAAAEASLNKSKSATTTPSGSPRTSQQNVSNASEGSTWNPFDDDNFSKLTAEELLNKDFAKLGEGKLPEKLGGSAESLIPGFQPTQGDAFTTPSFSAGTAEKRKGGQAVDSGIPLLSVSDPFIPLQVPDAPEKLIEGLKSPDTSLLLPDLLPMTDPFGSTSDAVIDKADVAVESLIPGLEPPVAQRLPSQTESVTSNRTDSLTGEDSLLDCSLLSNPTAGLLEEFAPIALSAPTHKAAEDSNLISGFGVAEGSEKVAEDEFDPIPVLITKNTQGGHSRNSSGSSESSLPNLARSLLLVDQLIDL
protocolDescription: In vivo inhibition of AAK1 in C57BL6 mouse assessed as suppression of mu2 phosphorylation in brain lysate by Western blot analysis
reportedEndpoint: pEC50
One number for each entry, as −log10 of the molar value.

State the recorded pEC50 for this entry: CC(C)C[C@@H](N)C(=O)Nc1ccc(-c2cnco2)c(OC(F)F)c1
5.08

----------
protocolDescription: Drug concentration in C57BL6 mouse plasma at 30 mg/kg, sc measured after 2 hrs by LC-MS/MS analysis
Type: ADME, organism-based
Please respond with reported concentration at 2 h for every item in the list.
One number for each entry, in µM.

Batch request: concentration at 2 h per item, same order as input.
1. COc1cc(NC(=O)[C@H](N)CC(C)C)ccc1-c1cnco1
2. COc1cc(NC(=O)[C@H](N)CC(C)C)ccc1-c1cn[nH]c1

1. 7.3
2. 29.9

----------
Provide the recorded fraction unbound at 5 h, 10 µM for the entries that follow.
protocolDescription: Protein binding in rat plasma assessed as unbound fraction at 10 uM measured after 5 hrs by equilibrium dialysis method
Answers are plain numbers.

Illustrative cases are given below, each with its answer.
COc1cc(NC(=O)[C@@H]2NCCC[C@@H]2C(C)C)ccc1-c1cnco1 ... 0.059
COc1cc(NC(=O)[C@H](N)CC(C)C)ccc1-c1cnco1 ... 0.023

Can you share its fraction unbound at 5 h, 10 µM? I mean this compound: COc1cc(NC(=O)[C@H](N)CC(C)C)ccc1-c1cn[nH]c1
0.1

----------
protocolDescription: Drug concentration in Sprague-Dawley rat plasma at 60 mg/kg, sc measured after 190 mins
Assay type: ADME, organism-based
reportedEndpoint: concentration at 3.167 h (µM)
One number for each entry, in µM.

Need concentration at 3.167 h, item CC(C)C[C@@H](N)C(=O)Nc1ccc(-c2cnco2)c(OC(F)F)c1
84

----------
targetDesc: AP2-associated protein kinase 1 (Homo sapiens, UniProt Q2M2I8)
Sequence (Q2M2I8 whole entry, the tested form may be a part): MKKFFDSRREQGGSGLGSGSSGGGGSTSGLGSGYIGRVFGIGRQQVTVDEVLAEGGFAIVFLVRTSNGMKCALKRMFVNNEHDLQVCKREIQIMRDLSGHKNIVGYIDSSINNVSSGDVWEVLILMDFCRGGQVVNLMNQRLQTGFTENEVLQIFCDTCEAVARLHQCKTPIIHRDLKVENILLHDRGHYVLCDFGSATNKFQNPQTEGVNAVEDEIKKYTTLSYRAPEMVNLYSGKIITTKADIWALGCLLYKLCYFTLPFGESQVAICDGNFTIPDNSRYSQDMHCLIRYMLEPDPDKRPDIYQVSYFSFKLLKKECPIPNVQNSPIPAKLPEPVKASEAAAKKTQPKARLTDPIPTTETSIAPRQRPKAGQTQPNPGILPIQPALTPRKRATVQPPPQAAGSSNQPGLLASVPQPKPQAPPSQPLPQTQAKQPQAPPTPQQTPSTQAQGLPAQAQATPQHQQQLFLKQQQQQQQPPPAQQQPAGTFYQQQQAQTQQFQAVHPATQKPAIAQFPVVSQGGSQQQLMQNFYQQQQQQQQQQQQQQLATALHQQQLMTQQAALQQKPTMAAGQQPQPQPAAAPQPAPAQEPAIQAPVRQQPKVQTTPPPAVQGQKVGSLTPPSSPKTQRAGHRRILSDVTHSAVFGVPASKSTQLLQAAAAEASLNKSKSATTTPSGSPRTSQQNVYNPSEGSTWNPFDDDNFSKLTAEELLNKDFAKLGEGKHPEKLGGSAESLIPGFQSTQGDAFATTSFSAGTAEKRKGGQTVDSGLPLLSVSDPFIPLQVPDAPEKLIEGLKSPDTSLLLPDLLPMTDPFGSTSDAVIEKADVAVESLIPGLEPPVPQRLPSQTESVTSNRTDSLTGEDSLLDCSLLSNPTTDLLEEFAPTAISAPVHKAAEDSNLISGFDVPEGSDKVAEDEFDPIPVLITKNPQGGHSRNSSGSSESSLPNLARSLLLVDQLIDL
protocolDescription: Inhibition of human AAK1 expressed in HEK293 cells assessed as suppression of AP2 phosphorylation measured after 3 hrs by Western blot analysis
Type: cell-based
reportedEndpoint: IC50 (nM)
Give bare numbers, in nM.

Here is how some molecules turned out for IC50.
COc1cc(NC(=O)[C@H](N)CC(C)C)ccc1-c1cn[nH]c1 ... 190
COc1cc(NC(=O)[C@H](N)CC(C)C)ccc1-c1cnco1 ... 60
COc1cc(NC(=O)[C@@H]2NCCC[C@@H]2C(C)C)ccc1-c1cnco1 ... 105

# next molecule below
Would you mind telling me what IC50 value was observed for CC(C)C[C@@H](N)C(=O)Nc1ccc(-c2cnco2)c(OC(F)F)c1 ?
51

----------
protocolDescription: Ratio of drug concentration in brain to plasma in C57BL6 mouse at […], sc
Type: ADME
conditionNotes: read-out: BPR
For each record, write down the corresponding Kp.

COc1cc(NC(=O)[C@H](N)CC(C)C)ccc1-c1cnco1 ... 1.17

Next up:
Form field: reported Kp of COc1cc(NC(=O)[C@H](N)CC(C)C)ccc1-c1cn[nH]c1
0.21

----------
protocolDescription: Metabolic stability in rat liver microsomes assessed as parent compound remaining at 0.5 uM incubated for 10 mins in presence of NADPH by LC-MS/MS analysis
Assay type: ADME, Microsome
conditionNotes: read-out: Stability
reportedEndpoint: remaining at 10 min, 0.5 µM (%)
Answers are plain numbers, in %.

The cases that follow already have their remaining at 10 min, 0.5 µM on record.
COc1cc(NC(=O)[C@H](N)CC(C)C)ccc1-n1ccnc1 ... 86
COc1cc(NC(=O)[C@H](N)CC(C)C)ccc1-c1ccncn1 ... 52
COc1cc(NC(=O)[C@@H](N)CC(C)C)ccc1-c1cnco1 ... 40
COc1cc(NC(=O)[C@H](N)CC(C)C)ccc1-c1ccnc(N)c1 ... 89
COc1cc(NC(=O)[C@H](N)C2CCCCC2)ccc1-c1cnco1 ... 66

Field: remaining at 10 min, 0.5 µM. Fill in for each record below.
1. COc1cc(NC(=O)[C@H](N)CC(C)C)ccc1-c1ccncc1
2. CCOc1cc(NC(=O)[C@H](N)CC(C)C)ccc1-c1cnco1
3. COc1cc(NC(=O)[C@H]2NCCC[C@H]2C(C)C)ccc1-c1cnco1

1: 77; 2: 60; 3: 24

----------
protocolDescription: Drug concentration in brain of Sprague-Dawley rat model of chronic constriction injury-induced neuropathic pain at 10 mg/kg, sc
Type: ADME, organism-based
conditionNotes: in vivo, read-out: Ct
reportedEndpoint: concentration (µM)
Numbers only, in µM.

Please give the measured concentration for this molecule: CC(C)C[C@@H](N)C(=O)Nc1ccc(-c2cnco2)c(OC(F)F)c1
7

----------
targetDesc: AP2-associated protein kinase 1 (Homo sapiens, UniProt Q2M2I8)
protocolDescription: Inhibition of recombinant GST-Xa-tagged human AAK1 (30 to 330 residues) using 5-FAM-labelled Alla-KEEQSQITSQVTGQIGWR-NH2 peptide as substrate incubated for 3 hrs in presence of ATP by electrophoretic analysis
pIC50: −log10 of the molar value.
If the reported pIC50 equals or exceeds 7, assign yes. If not, assign no.

COc1cc(NC(=O)[C@H]2NCCC[C@H]2C(C)C)ccc1-c1cnco1 ... no
CCC[C@H](N)C(=O)Nc1ccc(-c2cnco2)c(OC)c1 ... no
COc1cc(NC(=O)[C@H](N)CC(C)C)ccc1-c1cccnc1 ... no

Given COc1cc(NC(=O)[C@H](N)CC(C)C)ccc1-c1cncs1 , state whether its pIC50 is at least 7.
no

Hello, I need to know if COc1cc(NC(=O)[C@H](N)c2ccccc2)ccc1-c1cnco1 has measured pIC50 not below 7. Thanks!
yes

Would you say COc1cc(NC(=O)[C@H](N)C2CCCCC2)ccc1-c1cnco1 shows pIC50 at minimum 7?
yes

Check if pIC50 >= 7 (inclusive). Item: CC(C)C1CCCNC1C(=O)Nc1ccc(-c2ccncc2)cc1 (racemic)
yes

Check if pIC50 >= 7 (inclusive). Item: COc1cc(NC(=O)[C@H](N)CC2CC2)ccc1-c1cnco1
yes

----------
protocolDescription: Drug concentration in Sprague-Dawley rat plasma at 10 mg/kg, sc measured after 190 mins
Format: ADME, organism-based
reportedEndpoint: concentration at 3.167 h

// query concentration at 3.167 h value for entry CC(C)C[C@@H](N)C(=O)Nc1ccc(-c2cnco2)c(OC(F)F)c1
7.4 µM

----------
targetDesc: AP2-associated protein kinase 1 (Homo sapiens, UniProt Q2M2I8)
protocolDescription: Inhibition of recombinant GST-Xa-tagged human AAK1 (30 to 330 residues) using 5-FAM-labelled Alla-KEEQSQITSQVTGQIGWR-NH2 peptide as substrate incubated for 3 hrs in presence of ATP by electrophoretic analysis
reportedEndpoint: IC50 (nM)
One number for each entry, in nM.

CC(C)C[C@@H](N)C(=O)Nc1ccc(-c2cnco2)c(OC(F)F)c1 ... 12
COc1cc(NC(=O)[C@H](N)CC2CCCCC2)ccc1-c1cnco1 ... 480
CCOc1cc(NC(=O)[C@H](N)CC(C)C)ccc1-c1cnco1 ... 13

# batch size: 2; output IC50 per entry
1. COc1cc(NC(=O)[C@@H](C)N)ccc1-c1cnco1
2. CN[C@H](CC(C)C)C(=O)Nc1ccc(-c2cnco2)c(OC)c1

1300
46

Dear colleague, could you send me IC50 for each of the items below? Thanks.
1. COc1cc(NC(=O)[C@H](N)CC(C)C)ccc1-c1ccncc1
2. CCCC[C@@H](N)C(=O)Nc1ccc(-c2cnco2)c(OC)c1

[85, 65]

Please give IC50, item by item, for the list that follows.
1. COc1cc(NC(=O)[C@H](N)CC(C)C)ccc1-c1cn[nH]c1
2. COc1cc(NC(=O)[C@H]2CCCCN2)ccc1-c1cnco1
3. COc1cc(NC(=O)Cc2ccccc2)ccc1-c1cnco1

1: 15; 2: 550; 3: 430

Hey, quick one: what's IC50 for each of these?
1. CCc1cc(NC(=O)[C@H](N)CC(C)C)ccc1-c1cnco1
2. COc1cc(NC(=O)[C@H](N)CC(C)C)ccc1-c1ccncn1
3. CCC[C@@H](N)C(=O)Nc1ccc(-c2cnco2)c(OC)c1
4. Cc1cc(NC(=O)[C@H](N)CC(C)C)ccc1-c1cnco1
5. COc1cc(NC(=O)[C@H](N)CC(C)C)ccc1-c1cncnc1
6. COc1cc(NC(=O)[C@@H](N)CC(C)C)ccc1-c1cnco1
7. CCCC[C@H](N)C(=O)Nc1ccc(-c2cnco2)c(OC)c1

1: 100; 2: 290; 3: 90; 4: 48; 5: 5700; 6: 19; 7: 260
